- protocol.text: Dissociation constant was observed
- Format: physicochemical
recorded.endpoint: pKa
Give bare numbers.

Previously resolved entries follow.
Ask: Recorded pKa of O=C(CN1CCCC1)NCc1ccccc1 , please.
Reply: 8.27

Ask: Recorded pKa of CCN(CC)CC(=O)NCc1ccccc1.Cl , please.
Reply: 8.07

Ask: Recorded pKa of CCN(CC)CC(=O)NC1CCc2ccccc21.Cl (stereo not drawn) , please.
Reply: 8.19

Ask: Recorded pKa of CCCN(CCC)CC(=O)NC1c2ccccc2-c2ccccc21.Cl , please.
Reply: 7.28

Ask: Recorded pKa of CN(C)CC(=O)NCc1ccccc1.Cl , please.
Reply: 7.62

Ask: Recorded pKa of CCN(CC)CC(=O)NC1c2ccccc2-c2ccccc21.Cl , please.
Reply: 7.98

Ask: Recorded pKa of Cl.O=C(CN1CCCCC1)NCc1ccccc1 , please.
Reply: 7.71

Please turn your attention to the following entry.
Ask: Recorded pKa of Cl.O=C(CN1CCOCC1)NCc1ccccc1 , please.
Reply: 4.98

* * *

- protocol.text: Partition coefficient (logP)
- Type: physicochemical
- condition.set: octanol/water
recorded.endpoint: logP
Answers are plain numbers.

Previously resolved entries follow.
Ask: Recorded logP of O=C(CN1CCCC1)NCc1ccccc1 , please.
Reply: 1.69

Ask: Recorded logP of CCN(CC)CC(=O)NC1CCc2ccccc21.Cl (stereo unspecified) , please.
Reply: 2.74

Ask: Recorded logP of CCCN(CCC)CC(=O)NC1c2ccccc2-c2ccccc21.Cl , please.
Reply: 4.61

Ask: Recorded logP of CCN(CC)CC(=O)NC(c1ccccc1)c1ccccc1.Cl , please.
Reply: 3.74

Ask: Recorded logP of CCCN(CCC)CC(=O)NCc1ccccc1.Cl , please.
Reply: 3.11

Hi, could you look up logP for each item in my list?
1. CCCCCN(CCCCC)CC(=O)NCc1ccccc1.Cl
2. CCCN(CCC)CC(=O)NC1CCc2ccccc21.Cl (stereo unspecified)
3. CN(C)CC(=O)NCc1ccccc1.Cl

Reply:
1: 5.19; 2: 3.79; 3: 1.11

Hi, could you look up logP for each item in my list?
1. CCN(CC)CC(=O)NC1c2ccccc2CCc2ccccc21.Cl
2. CCN(CC)CC(=O)NCc1ccccc1-c1ccccc1.Cl

Reply:
1. 4.41
2. 3.74

Hi, could you look up logP for each item in my list?
1. Cl.O=C(CN1CCOCC1)NCc1ccccc1
2. CCCCN(CCCC)CC(=O)NCc1ccccc1.Cl
3. CCN(CC)CC(=O)NC1CC(c2ccccc2)c2ccccc21.Cl (stereo unspecified)
4. Cl.O=C(CN1CCCCC1)NCc1ccccc1

Reply:
1: 0.672; 2: 4.16; 3: 4.41; 4: 2.27

Hi, could you look up logP for each item in my list?
1. CCN(CC)CC(=O)NCc1ccccc1.Cl
2. CCN(CC)CC(=O)NC1c2ccccc2-c2ccccc21.Cl

Reply:
1: 2.14; 2: 3.64

* * *

- System: Oryctolagus cuniculus
- protocol.text: Anaesthetic activity measured as anaesthetic dose (AD) required to nullify the rabbit corneal reflex after 5 min
- Format: functional, Cornea
recorded.endpoint: AD
Report the figure along with its unit, number first.

Previously resolved entries follow.
Ask: Form field - read-out: AD; system: Oryctolagus cuniculus; submitted item: CCN(CC)CC(=O)NCc1ccccc1.Cl
Reply: 117 mM

Ask: Form field - read-out: AD; system: Oryctolagus cuniculus; submitted item: CCCCCN(CCCCC)CC(=O)NCc1ccccc1.Cl
Reply: 29.3 mM

Hi, could you look up AD for each item in my list?
1. CCN(CC)CC(=O)NC1CCc2ccccc21.Cl (centres undefined)
2. CCCN(CCC)CC(=O)NCc1ccccc1.Cl

Reply:
27.9 mM
17.5 mM
